target: Cry2 PHR (L348F)-p65AD-NLSx2 fusion construct as released from the TetR (I194T, 1-206)-CIB1 (-NLS)-T2A-Cry2 PHR (L348F)-p65AD-NLSx2 fusion construct; experiment: cell-based or functional assay
Sequence (Q96524 other isoform, or with tags, fused parts or gaps L348F I194T L348F L348F I194T L348F): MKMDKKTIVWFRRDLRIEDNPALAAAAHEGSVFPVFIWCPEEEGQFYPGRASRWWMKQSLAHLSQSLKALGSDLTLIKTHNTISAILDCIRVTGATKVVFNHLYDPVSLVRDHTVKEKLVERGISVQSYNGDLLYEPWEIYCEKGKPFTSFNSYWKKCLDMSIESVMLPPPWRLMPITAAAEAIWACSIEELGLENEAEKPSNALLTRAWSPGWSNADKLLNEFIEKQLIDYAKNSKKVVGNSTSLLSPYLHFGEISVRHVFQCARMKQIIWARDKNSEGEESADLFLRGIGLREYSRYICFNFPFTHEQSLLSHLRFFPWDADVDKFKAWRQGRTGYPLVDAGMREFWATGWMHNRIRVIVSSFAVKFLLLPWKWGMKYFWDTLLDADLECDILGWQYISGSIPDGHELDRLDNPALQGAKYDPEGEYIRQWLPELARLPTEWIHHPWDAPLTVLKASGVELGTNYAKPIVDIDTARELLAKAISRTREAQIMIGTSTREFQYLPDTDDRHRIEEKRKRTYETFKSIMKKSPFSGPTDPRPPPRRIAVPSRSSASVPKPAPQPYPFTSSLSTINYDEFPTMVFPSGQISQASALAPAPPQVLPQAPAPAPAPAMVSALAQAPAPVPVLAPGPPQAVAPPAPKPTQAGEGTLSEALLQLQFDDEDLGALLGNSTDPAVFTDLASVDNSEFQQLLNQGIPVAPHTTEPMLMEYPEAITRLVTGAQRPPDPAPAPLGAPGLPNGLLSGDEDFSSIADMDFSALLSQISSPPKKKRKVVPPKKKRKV
Ub-ELuc luciferase, Dark, Dox 75 ng/mL values for the binders below.

{"columns": ["binder", "quantityUnit", "Ub-ELuc luciferase, Dark, Dox 75 ng/mL"],
 "data": [
  ["TetR (I194T, 1-206)-CIB1 (-NLS) fusion construct as released from the TetR (I194T, 1-206)-CIB1 (-NLS)-T2A-Cry2 PHR (L348F)-p65AD-NLSx2 fusion construct (protein, part only, residual T2A residues at C-terminus) MARLDKSKVINSALELLNEVGIEGLTTRKLAQKLGVEQPTLYWHVKNKRALLDALAIEMLDRHHTHFCPLEGESWQDFLRNNAKSFRCALLSHRDGAKVHLGTRPTEKQYETLENQLAFLCQQGFSLENALYALSAVGHFTLGCVLEDQEHQVAKEERETPTTDSMPPLLRQAIELFDHQGAEPAFLFGLELITCGLEKQLKCESGSPKKKHMEFNGAIGGDLLLNFPDMSVLERQRAHLKYLNPTFDSPLAGFFADSSMITGGEMDSYLSTAGLNLPMMYGETTVEGDSRLSISPETTLGTGNFKAAKFDTETKDCNEAAKKMTMNRDDLVEEGEEEKSKITEQNNGSTKSIKKMKHKAKKEENNFSNDSSKVTKELEKTDYI", "relative", 0.1],
  ["rTetR (I194T, M2 mutation, 1-206)-CIB1 (-NLS) from the T2A construct (protein, part only; not given: Leftover T2A residues, part only) chain, part: MARLDKSKVINGALELLNGVGIEGLTTRKLAQKLGVEQPTLYWHVKNKRALLDALPIEMLDRHHTHFCPLEGESWQDFLRNNAKSFRCALLSHRDGAKVHLGTRPTEKQYETLENQLAFLCQQGFSLENALYALSAVGHFTLGCVLEEQEHQVAKEERETPTTDSMPPLLRQAIELFDRQGAEPAFLFGLELITCGLEKQLKCESGSPKKKHMEFNGAIGGDLLLNFPDMSVLERQRAHLKYLNPTFDSPLAGFFADSSMITGGEMDSYLSTAGLNLPMMYGETTVEGDSRLSISPETTLGTGNFKAAKFDTETKDCNEAAKKMTMNRDDLVEEGEEEKSKITEQNNGSTKSIKKMKHKAKKEENNFSNDSSKVTKELEKTDYI", "relative", 0.3],
  ["rTetR (I194T, rtTA mutation, 1-206)-CIB1 (-NLS) from the T2A construct (protein, part only; not given: Leftover T2A residues, part only) chain, part: MARLDKSKVINSALELLNEVGIEGLTTRKLAQKLGVEQPTLYWHVKNKRALLDALAIEMLDRHHTHFCPLKGESWQDFLRNNAKSFRCALLSHRNGAKVHSDTRPTEKQYETLENQLAFLCQQGFSLENALYALSAVGHFTLGCVLEDQEHQVAKEERETPTTDSMPPLLRQAIELFDHQGAEPAFLFGLELITCGLEKQLKCESGSPKKKHMEFNGAIGGDLLLNFPDMSVLERQRAHLKYLNPTFDSPLAGFFADSSMITGGEMDSYLSTAGLNLPMMYGETTVEGDSRLSISPETTLGTGNFKAAKFDTETKDCNEAAKKMTMNRDDLVEEGEEEKSKITEQNNGSTKSIKKMKHKAKKEENNFSNDSSKVTKELEKTDYI", "relative", 0.1],
  ["TetR (I194T, H100Y, 1-206)-CIB1 (-NLS) from the T2A construct (protein, part only, T2A residues at C-terminus) MARLDKSKVINSALELLNEVGIEGLTTRKLAQKLGVEQPTLYWHVKNKRALLDALAIEMLDRHHTHFCPLEGESWQDFLRNNAKSFRCALLSHRDGAKVYLGTRPTEKQYETLENQLAFLCQQGFSLENALYALSAVGHFTLGCVLEDQEHQVAKEERETPTTDSMPPLLRQAIELFDHQGAEPAFLFGLELITCGLEKQLKCESGSPKKKHMEFNGAIGGDLLLNFPDMSVLERQRAHLKYLNPTFDSPLAGFFADSSMITGGEMDSYLSTAGLNLPMMYGETTVEGDSRLSISPETTLGTGNFKAAKFDTETKDCNEAAKKMTMNRDDLVEEGEEEKSKITEQNNGSTKSIKKMKHKAKKEENNFSNDSSKVTKELEKTDYI", "relative", 3.1]
]}
